# maps each entry to its Kd
Biological target: T1, Cbx7.VD chromodomain, Q9D/K33E (tags removed) (human, UniProt O95931 7-66, Q9D | K33E)
T1 construct: chromodomain of human Cbx7 (Cbx7-chromo), UniProt O95931; source: E. coli BL21(DE3), purified (Ni-NTA; tags removed with TEV protease)
T1 sequence: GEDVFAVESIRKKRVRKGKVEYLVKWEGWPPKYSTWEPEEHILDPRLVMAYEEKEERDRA
Experiment: fluorescence polarisation; 0.5 nM FITC-labelled peptide; chromodomains 200-0.2 µM (wild type) or 50 µM-50 nM (Cbx7.V1 and all Cbx.VDs); 30 min at 25 °C; 25 mM HEPES pH 7.5, 150 mM NaCl, 1 mM DTT, 0.01% TritonX-100; one-site total binding model
Settings: both partners purified

- BINDER: "KQLATKAARKSAPATGGVK (trimethyl-lysine at K27; fluorescein isothiocyanate (FITC) at the N-terminus) [H3K27me3 peptide, N-terminal FITC]"
  Kd (µM): 5
- BINDER: "ARTKQTARKSTGGKAPR (trimethyl-lysine at K9; fluorescein isothiocyanate (FITC) at the N-terminus) [H3K9me3 peptide, N-terminal FITC]"
  Kd (µM): 8
